# measurement target: T1, sIL-6R (soluble IL-6 receptor; SBH Sciences) (human, UniProt P08887 20-365)
# T1 construct: also called human IL-6R
# T1 sequence: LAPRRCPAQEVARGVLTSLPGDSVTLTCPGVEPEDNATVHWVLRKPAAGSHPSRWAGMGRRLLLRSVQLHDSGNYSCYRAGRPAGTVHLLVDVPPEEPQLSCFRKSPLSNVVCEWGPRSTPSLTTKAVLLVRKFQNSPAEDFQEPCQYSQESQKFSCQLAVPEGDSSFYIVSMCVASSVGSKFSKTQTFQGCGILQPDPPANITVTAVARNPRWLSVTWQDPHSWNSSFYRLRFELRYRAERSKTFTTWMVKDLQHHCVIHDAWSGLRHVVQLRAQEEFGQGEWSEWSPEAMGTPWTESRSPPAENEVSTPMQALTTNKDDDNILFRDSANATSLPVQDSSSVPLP
# procedure summary: SPR (BIAcore 3000), antibody on chip, sIL-6R analyte, 25 C
Each item that follows carries a reported log10(Kd).
Base-10 log of Kd, unit nM.

// sample 31# (antibody, human IgG1, kappa, V domains shown, also called Sample # 31) VH: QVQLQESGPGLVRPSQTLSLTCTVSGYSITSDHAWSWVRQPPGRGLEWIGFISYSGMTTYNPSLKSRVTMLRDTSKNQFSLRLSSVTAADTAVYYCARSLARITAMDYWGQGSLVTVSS VL: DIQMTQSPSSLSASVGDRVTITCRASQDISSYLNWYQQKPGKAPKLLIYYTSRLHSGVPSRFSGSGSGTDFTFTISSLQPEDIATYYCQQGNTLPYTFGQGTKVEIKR , its log10(Kd) was -1.00

// sample 5# (antibody, human IgG1, kappa, V domains shown, also called Sample # 5) VH: QVQLQESGPGLVRPSQTLSLTCTVSGYSITSDHAWSWVRQPPGRGLEWIGFISYSGITTYNPSLKSRVTMLRDTSKNQFSLRLSSVTAADTAVYYCARSLARTTAMDYWGQGSLVTVSS VL: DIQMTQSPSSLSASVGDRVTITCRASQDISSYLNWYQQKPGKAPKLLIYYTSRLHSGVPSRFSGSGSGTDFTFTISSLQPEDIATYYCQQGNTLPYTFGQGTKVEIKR , its log10(Kd) was -0.05

// sample 8# (antibody, human IgG1, kappa, V domains shown, also called Sample # 8) VH: QVQLQESGPGLVRPSQTLSLTCTVSGYSITSDHAWSWVRQPPGRGLEWIGFISYSGITTYNPSLKSRVTMLRDTSKNQFSLRLSSVTAADTAVYYCARSLARTTAMDFWGQGSLVTVSS VL: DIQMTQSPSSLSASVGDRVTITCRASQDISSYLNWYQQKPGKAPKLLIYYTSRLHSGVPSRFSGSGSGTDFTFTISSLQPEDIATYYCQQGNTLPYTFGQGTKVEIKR , its log10(Kd) was -0.05

// sample 3# (antibody, human IgG1, kappa, V domains shown, also called Sample # 3) VH: QVQLQESGPGLVRPSQTLSLTCTVSGYSITSDHAWSWVRQPPGRGLEWIGYISYSGITTYNPSLKSRVTMLRDTSKNQFSLRLSSVTAADTAVYYCARSLARATAMDYWGQGSLVTVSS VL: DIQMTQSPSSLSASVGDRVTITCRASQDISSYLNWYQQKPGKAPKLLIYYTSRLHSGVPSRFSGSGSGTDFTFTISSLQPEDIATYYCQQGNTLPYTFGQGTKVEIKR , its log10(Kd) was -0.56

// sample Tocilizumab (antibody, human IgG1, kappa, V domains shown, also called 25; 25(control)) VH: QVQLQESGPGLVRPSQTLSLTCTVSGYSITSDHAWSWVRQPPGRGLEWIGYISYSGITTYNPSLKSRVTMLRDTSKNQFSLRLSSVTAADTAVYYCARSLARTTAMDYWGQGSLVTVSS VL: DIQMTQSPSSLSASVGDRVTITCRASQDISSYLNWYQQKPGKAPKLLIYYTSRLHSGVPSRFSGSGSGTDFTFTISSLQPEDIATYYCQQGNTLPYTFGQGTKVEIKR , its log10(Kd) was 0.13
